Entry source: ChEMBL document CHEMBL4330075

Test: Toxicity in ICR mouse assessed as mouse survival at 1000 mg/kg, iv for 14 days relative to control
Type: organism-based
Details: in vivo
Measured Quantity: survival at 336 h (%)
Please give a number only; it is taken to be in %.

input: So what does the record say about survival at 336 h for COc1ccc(/C=C(\C)C(=O)c2cc(C)nc3ccccc23)cc1O ?
output: 10

* * *

Assay: Toxicity in ICR mouse assessed as mouse survival at 640 mg/kg, iv for 14 days relative to control
Type: organism-based
Settings: in vivo
Measured Quantity: survival at 336 h (%)
Please give a number only; it is taken to be in %.

input: So what does the record say about survival at 336 h for COc1ccc(/C=C(\C)C(=O)c2cc(C)nc3ccccc23)cc1O ?
output: 60

* * *

Test system: HCT-8
Assay: Antiproliferative activity against human HCT8 cells after 72 hrs by MTT assay
Assay type: functional, cell-based
Details: HCT-8, 72 h
Measured Quantity: IC50 (nM)
Please give a number only; it is taken to be in nM.

input: So what does the record say about IC50 for C/C(=C\c1ccc2c(ccn2C)c1)C(=O)c1cc(C)nc2ccccc12 ?
output: 135

input: Then COc1ccc(/C=C(\C)C(=O)c2cc(C)nc3ccccc23)cc1N ?
output: 36

input: Then COc1ccc(/C=C(\C)C(=O)c2cc(C)nc3ccccc23)cc1O ?
output: 15

input: Then COc1ccc(/C=C/C(=O)c2cc(C)nc3ccccc23)cc1N ?
output: 210

input: Then COc1ccc(/C=C(\C)C(=O)c2cc(Cl)nc3ccccc23)cc1O ?
output: 227

input: Then COc1ccc(/C=C(\C)C(=O)c2cc(CO)nc3ccccc23)cc1O ?
output: 242

input: Then COc1ccc(/C=C(\C)C(=O)c2ccnc3ccccc23)cc1O ?
output: 37

input: Then C/C(=C\c1ccc2[nH]ccc2c1)C(=O)c1cc(C)nc2ccccc12 ?
output: 421

input: Then COc1ccc(/C=C/C(=O)c2cc(OC)c(OC)c(OC)c2)cc1O ?
output: 104

input: Then COc1cc(C(=O)/C(C)=C/c2ccc(OC)c(O)c2)c2ccccc2n1 ?
output: 61

input: Then COc1ccc(/C=C/C(=O)c2cc(C)nc3ccccc23)cc1O ?
output: 137

input: Then CNc1cc(C(=O)/C(C)=C/c2ccc(OC)c(O)c2)c2ccccc2n1 ?
output: 40

input: Then COc1ccc(/C=C(\C)C(=O)c2cc(N(C)C)nc3ccccc23)cc1O ?
output: 52

* * *

Assay: Cytotoxicity against human MDA-MB-231 cells assessed as growth inhibition at 10 nM after 48 hrs
Assay type: cell-based
Conditions: read-out: GI
Measured Quantity: inhibition at 48 h, 0.01 µM

input: So what does the record say about inhibition at 48 h, 0.01 µM for COc1ccc(/C=C(\C)C(=O)c2cc(C)nc3ccccc23)cc1O ?
output: < 10%

* * *

Assay: Toxicity in ICR mouse assessed as mouse survival at 800 mg/kg, iv for 14 days relative to control
Format: organism-based
Settings: in vivo
Measured Quantity: survival at 336 h (%)
Please give a number only; it is taken to be in %.

input: So what does the record say about survival at 336 h for COc1ccc(/C=C(\C)C(=O)c2cc(C)nc3ccccc23)cc1O ?
output: 30

* * *

Experiment: Toxicity in iv dosed ICR mouse assessed as mouse survival for 14 days
Type: organism-based
Conditions: in vivo
Measured Quantity: LD50 at 336 h (mg/kg)
Please give a number only; it is taken to be in mg/kg.

input: So what does the record say about LD50 at 336 h for COc1ccc(/C=C(\C)C(=O)c2cc(C)nc3ccccc23)cc1O ?
output: 666

* * *

Tested on: HepG2
Assay: cells
Conditions: Homo sapiens, HepG2, 72 h
Measured Quantity: pIC50
As a rule, pIC50 stands for the negative log10 of the concentration, concentration in M.

input: So what does the record say about pIC50 for COc1ccc(/C=C(\C)C(=O)c2cc(N(C)C)nc3ccccc23)cc1O ?
output: 7.24

input: Then COc1ccc(/C=C(\C)C(=O)c2cc(CO)nc3ccccc23)cc1O ?
output: 6.78

input: Then C/C(=C\c1ccc2[nH]ccc2c1)C(=O)c1cc(C)nc2ccccc12 ?
output: 6.65

input: Then COc1ccc(/C=C/C(=O)c2cc(C)nc3ccccc23)cc1O ?
output: 6.92

input: Then COc1ccc(/C=C(\C)C(=O)c2cc(C)nc3ccccc23)cc1N ?
output: 7.44

input: Then C/C(=C\c1ccc2c(ccn2C)c1)C(=O)c1cc(C)nc2ccccc12 ?
output: 6.95

input: Then COc1ccc(/C=C(\C)C(=O)c2cc(C)nc3ccccc23)cc1O ?
output: 7.82

input: Then CNc1cc(C(=O)/C(C)=C/c2ccc(OC)c(O)c2)c2ccccc2n1 ?
output: 7.57

input: Then COc1cc(C(=O)/C(C)=C/c2ccc(OC)c(O)c2)c2ccccc2n1 ?
output: 7.42

input: Then COc1ccc(/C=C(\C)C(=O)c2cc(Cl)nc3ccccc23)cc1O ?
output: 6.73

input: Then COc1ccc(/C=C/C(=O)c2cc(C)nc3ccccc23)cc1N ?
output: 6.65

input: Then COc1ccc(/C=C(\C)C(=O)c2ccnc3ccccc23)cc1O ?
output: 7.62

* * *

Test: Selectivity index, ratio of IC50 for human LO2 cells to IC50 for human HepG2 cells
Assay type: toxicity
Details: LO2 cells and HepG2 cells, read-out: Ratio IC50
Kindly supply the reported selectivity ratio values for the records listed here.
Give a plain numeric answer without units written out.

input: So what does the record say about selectivity ratio for COc1cc(C(=O)/C(C)=C/c2ccc(OC)c(O)c2)c2ccccc2n1 ?
output: 24.1

input: Then CNc1cc(C(=O)/C(C)=C/c2ccc(OC)c(O)c2)c2ccccc2n1 ?
output: 40.2

input: Then COc1ccc(/C=C(\C)C(=O)c2cc(C)nc3ccccc23)cc1N ?
output: 25.6

input: Then COc1ccc(/C=C(\C)C(=O)c2ccnc3ccccc23)cc1O ?
output: 38.7

input: Then COc1ccc(/C=C(\C)C(=O)c2cc(C)nc3ccccc23)cc1O ?
output: 65.8

* * *

Test system: HUVEC
Experiment: Antiproliferative activity against human HUVEC cells after 24 hrs by MTT assay
Format: cell-based
Measured Quantity: pIC50
As a rule, pIC50 stands for the negative log10 of the concentration, concentration in M.

input: So what does the record say about pIC50 for COc1ccc(/C=C(\C)C(=O)c2cc(C)nc3ccccc23)cc1O ?
output: 6.60
